Measured IC50, listed per entry.
# study_system: muscarinic acetylcholine receptors
# assay_info: ^3 H-QNB (quinuclidinyl benzilate) binding/displacement, rat cerebral membranes
# measurement_parameters: ^3 H-QNB 60 pM, rat cerebral membranes

# molecule, study_system, IC50
measured = [
    ("CN1CCCC1c1cncc(-c2ccc(O)c(Cl)c2)c1.O=C(O)/C=C/C(=O)O (stereo not drawn) [R^5 = 3-chloro-4-hydroxyphenyl, fumarate]", "muscarinic acetylcholine receptors", "> 10 µM"),
    ("COc1ccc(-c2cncc(C3CCCN3C)c2)cc1F.O=C(O)/C=C/C(=O)O (stereo not drawn) [R^5 = 3-fluoro-4-methoxyphenyl, fumarate]", "muscarinic acetylcholine receptors", "30.5 µM"),
    ("CN1CCCC1c1cncc(C#CCO)c1 (stereo not drawn) [R^5 = 5-(1-hydroxy-2-propynyl)]", "muscarinic acetylcholine receptors", "> 100 µM"),
]

###

# study_system: nicotinic acetylcholine receptor (Rattus norvegicus, UniProt P09483+P12390)
# Construct: the brains removed and the cerebral cortex dissected on ice; from tissue; host or cells: cerebral cortex synaptic membranes of male Sprague-Dawley rats
# Sequence (P09483 31-630): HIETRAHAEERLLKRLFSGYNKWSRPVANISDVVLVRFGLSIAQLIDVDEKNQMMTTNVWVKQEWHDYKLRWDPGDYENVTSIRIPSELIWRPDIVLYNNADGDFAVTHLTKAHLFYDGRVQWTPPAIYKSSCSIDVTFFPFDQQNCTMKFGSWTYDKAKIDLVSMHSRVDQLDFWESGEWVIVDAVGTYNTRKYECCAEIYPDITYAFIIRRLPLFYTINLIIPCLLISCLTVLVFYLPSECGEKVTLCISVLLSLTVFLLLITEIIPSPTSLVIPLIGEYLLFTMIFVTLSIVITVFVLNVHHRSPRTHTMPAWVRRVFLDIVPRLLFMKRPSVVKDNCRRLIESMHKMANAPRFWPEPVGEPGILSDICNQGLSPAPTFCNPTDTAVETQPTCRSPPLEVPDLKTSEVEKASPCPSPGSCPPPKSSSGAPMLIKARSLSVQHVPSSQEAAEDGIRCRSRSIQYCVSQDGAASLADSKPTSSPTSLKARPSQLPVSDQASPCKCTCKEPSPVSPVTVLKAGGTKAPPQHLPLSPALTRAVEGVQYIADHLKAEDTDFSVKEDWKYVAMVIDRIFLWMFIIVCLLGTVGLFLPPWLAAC
# Sequence (P12390 25-500): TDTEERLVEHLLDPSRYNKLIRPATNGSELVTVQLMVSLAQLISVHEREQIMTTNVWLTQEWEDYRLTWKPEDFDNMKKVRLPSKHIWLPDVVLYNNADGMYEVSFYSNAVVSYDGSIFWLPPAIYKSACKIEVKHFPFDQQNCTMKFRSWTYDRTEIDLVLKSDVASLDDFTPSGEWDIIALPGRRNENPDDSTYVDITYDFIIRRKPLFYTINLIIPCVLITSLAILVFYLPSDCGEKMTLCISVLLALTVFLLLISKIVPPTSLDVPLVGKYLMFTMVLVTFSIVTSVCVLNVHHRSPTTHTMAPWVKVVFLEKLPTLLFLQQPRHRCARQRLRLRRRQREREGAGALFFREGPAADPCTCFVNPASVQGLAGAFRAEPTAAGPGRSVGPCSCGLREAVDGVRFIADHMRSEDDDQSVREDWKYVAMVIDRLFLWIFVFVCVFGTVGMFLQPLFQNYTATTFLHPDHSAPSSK
# assay_info: ^3 H-Nicotine binding/displacement, rat cerebral membranes
# measurement_parameters: IC50, Nicotine
pIC50: −log10 of the molar value.

# molecule, study_system, pIC50
data = [
    ("C#Cc1cncc(C2CCCN2C)c1.O=C(O)/C=C/C(=O)O (racemic) [R^5 = ethynyl (racemic), fumarate]", "nicotinic acetylcholine receptor (Rattus norvegicus, UniProt P09483+P12390)", 8.34),
]

###

# System: ^3 H-Dopamine release, rat striatal slices
# assay_info: Ligand-stimulated ^3 H-dopamine release from rat striatal slices
# Format: cell-based
# measurement_parameters: in vitro slices, 300 μM
value_type: percent fractional release, ^3 H-Dopamine, Striatum (%)

# molecule, result
data = [
    ("CN1CCCC1c1cncc(-c2cccc(Cl)c2)c1.O=C(O)/C=C/C(=O)O (stereo not drawn)", 2.0),
    ("CN1CCCC1c1cncc(-c2ccc(O)cc2)c1.O=C(O)/C=C/C(=O)O (stereo not drawn) [R^5 = 4-hydroxyphenyl]", 3.73),
    ("C#Cc1cncc(C2CCCN2C)c1.O=C(O)/C=C/C(=O)O (racemic) [R^5 = ethynyl (racemic)]", 2.56),
]

###

# Test system: ^3 H-Dopamine release, rat olfactory tubercles
# assay_info: Ligand-stimulated ^3 H-dopamine release from rat olfactory tubercles
# Type: cell-based
# measurement_parameters: in vitro slices, 300 μM
Measured percent fractional release, ^3 H-Dopamine, Olfactory Tubercles, listed per entry.
value_type: percent fractional release, ^3 H-Dopamine, Olfactory Tubercles (%)

# molecule, result
records = [
    ("CN1CCCC1c1cncc(-c2cccc(Cl)c2)c1.O=C(O)/C=C/C(=O)O (stereo not shown)", 3.25),
    ("COc1ccc(-c2cncc(C3CCCN3C)c2)cc1.O=C(O)/C=C/C(=O)O (stereo not shown)", 4.0),
    ("CN1CCCC1c1cncc(-c2ccc(-c3ccccc3)cc2)c1 (stereo not shown)", 6.3),
    ("C#Cc1cncc(C2CCCN2C)c1.O=C(O)/C=C/C(=O)O (racemic) [R^5 = ethynyl (racemic)]", 6.68),
]

###

# Test system: rats
# assay_info: Locomotor activity assay
# Format: in vivo, rat (male Sprague-Dawley)
# measurement_parameters: Rattus norvegicus, sc, 1 h; 0-60 min, 20 mg/kg, s.c.; read-out: Ambulation (cross overs), percent of change from control
Measured change in vivo at 20 mg/kg, listed per entry.

# molecule, change in vivo at 20 mg/kg (%)
measured = [
    ("COc1ccc(-c2cncc(C3CCCN3C)c2)cc1.O=C(O)/C=C/C(=O)O (stereo not drawn) [R^5 = 4-methyoxyphenyl, fumarate]", 58),
    ("C#Cc1cncc(C2CCCN2C)c1.O=C(O)/C=C/C(=O)O (racemic) [R^5 = ethynyl (racemic), fumarate]", 631),
    ("CN1CCCC1c1cncc(-c2cccc(Cl)c2)c1.O=C(O)/C=C/C(=O)O (stereo not drawn) [R^5 = 3-chlorophenyl, fumarate]", 48),
]

###

# study_system: muscarinic acetylcholine receptors
# assay_info: ^3 H-QNB (quinuclidinyl benzilate) binding/displacement, rat cerebral membranes

# molecule, IC50
records = [
    ("CN1CCCC1c1cncc(C#CCCCCCCC#Cc2cncc(C3CCCN3C)c2)c1 (stereo not shown)", "7.5 µM"),
]

###

# study_system: muscarinic acetylcholine receptors
# assay_info: ^3 H-QNB (quinuclidinyl benzilate) binding/displacement, rat cerebral membranes
# measurement_parameters: ^3 H-QNB 60 pM, rat cerebral membranes
pIC50: −log10 of the molar value.
Measured pIC50, listed per entry.
value_type: pIC50

# molecule, qualifier_sign, result
records = [
    ("C#Cc1cncc(C2CCCN2C)c1.O=C(O)/C=C/C(=O)O (racemic) [R^5 = ethynyl (racemic), fumarate]", "=", 5.00),
    ("CCCC#Cc1cncc(C2CCCN2C)c1 (centres unmarked)", "=", 4.41),
    ("Cc1ccc(-c2cncc(C3CCCN3C)c2)cc1.O=C(O)/C=C/C(=O)O (centres unmarked) [R^5 = 4-methylphenyl, fumarate]", "=", 4.85),
    ("CC#Cc1cncc(C2CCCN2C)c1 (centres unmarked)", "<", 4.00),
    ("CN1CCCC1c1cncc(-c2cccc(Cl)c2)c1.O=C(O)/C=C/C(=O)O (centres unmarked) [R^5 = 3-chlorophenyl, fumarate]", "=", 5.43),
    ("CN1CCCC1c1cncc(-c2ccc(-c3ccccc3)cc2)c1 (centres unmarked)", "=", 5.02),
    ("CN1CCCC1c1cncc(-c2ccc(O)cc2)c1.O=C(O)/C=C/C(=O)O (centres unmarked) [R^5 = 4-hydroxyphenyl, fumarate]", "=", 4.72),
    ("C#Cc1cncc(C2CCC(=O)N2C)c1 (centres unmarked)", "<", 4.00),
]

###

Measured IC50, listed per entry.
# study_system: nicotinic acetylcholine receptor (Rattus norvegicus, UniProt P09483+P12390)
# Construct: the brains removed and the cerebral cortex dissected on ice; from tissue; host or cells: cerebral cortex synaptic membranes of male Sprague-Dawley rats
# assay_info: ^3 H-Nicotine binding/displacement, rat cerebral membranes
# measurement_parameters: ^3 H-nicotine 1.9 nM, rat cerebral membranes; read-out: IC50, Nicotine

# molecule, IC50
data = [
    ("CN1CCCC1c1cncc(C#CCO)c1 (stereo not shown) [R^5 = 5-(1-hydroxy-2-propynyl)]", "3.6 nM"),
    ("CN1CCCC1c1cncc(C#CC(C)(C)O)c1 (stereo not shown)", "38 nM"),
    ("CC(O)C#Cc1cncc(C2CCCN2C)c1 (stereo not shown) [R^5 = 5-(2-hydroxy-3-butynyl)]", "11 nM"),
    ("CCCC#Cc1cncc(C2CCCN2C)c1 (stereo not shown) [R^5 = 5-(1-pentynyl)]", "4.2 nM"),
    ("CN1CCCC1c1cncc(-c2ccc(O)c(Cl)c2)c1.O=C(O)/C=C/C(=O)O (stereo not shown) [R^5 = 3-chloro-4-hydroxyphenyl, fumarate]", "28 nM"),
    ("CN1CCCC1c1cncc(-c2ccc(-c3ccccc3)cc2)c1 (stereo not shown) [R^5 = 4-biphenyl]", "47 nM"),
    ("C#Cc1cncc(C2CCCN2)c1 (stereo not shown) [R^7 = H; R^5 = 5-(1-ethynyl)]", "58 nM"),
]

###

Measured change in vivo at 20 mg/kg, listed per entry.
# Tested on: rats
# assay_info: Locomotor activity assay
# Assay type: in vivo, rat (male Sprague-Dawley)
# measurement_parameters: Rattus norvegicus, sc, 1 h; 0-60 min, 20 mg/kg, s.c.; read-out: Ambulation (cross overs), percent of change from control
Counter-ions that a name gives are not always drawn.
value_type: change in vivo at 20 mg/kg (%)

# molecule, measurement_units, result
data = [
    ("COc1ccc(-c2cncc(C3CCCN3C)c2)cc1F.O=C(O)/C=C/C(=O)O (stereo not shown) [R^5 = 3-fluoro-4-methoxyphenyl, fumarate]", "%", 58),
    ("CN1CCCC1c1cncc(-c2ccc(O)c(Cl)c2)c1.O=C(O)/C=C/C(=O)O (stereo not shown) [R^5 = 3-chloro-4-hydroxyphenyl, fumarate]", "%", 63),
    ("CN1CCCC1c1cncc(-c2ccc(O)c(F)c2)c1.O=C(O)/C=C/C(=O)O (stereo not shown) [R^5 = 3-fluoro-4-hydroxyphenyl, fumarate]", "%", 49),
    ("CN1CCCC1c1cncc(-c2ccc(F)cc2)c1.O=C(O)/C=C/C(=O)O (stereo not shown) [A = CH2; R^7 = CH3; R^5 = 4-fluorophenyl, fumarate]", "%", 21),
    ("CN1CCCC1c1cncc(C#Cc2ccccc2)c1 (stereo not shown) [R^5 = phenylethynyl, fumarate]", "%", 7),
    ("CN1CCCC1c1cncc(-c2ccc(O)cc2)c1.O=C(O)/C=C/C(=O)O (stereo not shown) [R^5 = 4-hydroxyphenyl, fumarate]", "%", 74),
    ("CN1CCCC1c1cncc(-c2ccc(-c3ccccc3)cc2)c1 (stereo not shown) [R^5 = 4-biphenyl]", "%", -9),
]

###

Measured change in vivo at 20 mg/kg, listed per entry.
# System: rats
# assay_info: Locomotor activity assay
# Format: in vivo, rat (male Sprague-Dawley)
# measurement_parameters: Rattus norvegicus, sc, 2 h; 60-120 min, 20 mg/kg, s.c.; read-out: General Activity (beam breaks), percent of change from control
Counter-ions that a name gives are not always drawn.
value_type: change in vivo at 20 mg/kg

# compound, study_system, value_type, result
rows = [
    ("CN1CCCC1c1cncc(-c2ccc(O)c(Cl)c2)c1.O=C(O)/C=C/C(=O)O (stereo not shown) [R^5 = 3-chloro-4-hydroxyphenyl, fumarate]", "rats", "change in vivo at 20 mg/kg", "-17%"),
    ("CN1CCCC1c1cncc(-c2cccc(Cl)c2)c1.O=C(O)/C=C/C(=O)O (stereo not shown) [R^5 = 3-chlorophenyl, fumarate]", "rats", "change in vivo at 20 mg/kg", "220%"),
    ("COc1ccc(-c2cncc(C3CCCN3C)c2)cc1.O=C(O)/C=C/C(=O)O (stereo not shown) [R^5 = 4-methyoxyphenyl, fumarate]", "rats", "change in vivo at 20 mg/kg", "22%"),
    ("COc1ccc(-c2cncc(C3CCCN3C)c2)cc1F.O=C(O)/C=C/C(=O)O (stereo not shown) [R^5 = 3-fluoro-4-methoxyphenyl, fumarate]", "rats", "change in vivo at 20 mg/kg", "202%"),
    ("C#Cc1cncc(C2CCCN2C)c1.O=C(O)/C=C/C(=O)O (racemic) [R^5 = ethynyl (racemic), fumarate]", "rats", "change in vivo at 20 mg/kg", "628%"),
    ("CN1CCCC1c1cncc(-c2ccc(O)cc2)c1.O=C(O)/C=C/C(=O)O (stereo not shown) [R^5 = 4-hydroxyphenyl, fumarate]", "rats", "change in vivo at 20 mg/kg", "7%"),
    ("CN1CCCC1c1cncc(C#Cc2ccccc2)c1 (stereo not shown) [R^5 = phenylethynyl, fumarate]", "rats", "change in vivo at 20 mg/kg", "-11%"),
    ("CN1CCCC1c1cncc(-c2ccc(-c3ccccc3)cc2)c1 (stereo not shown) [R^5 = 4-biphenyl]", "rats", "change in vivo at 20 mg/kg", "98%"),
    ("CN1CCCC1c1cncc(-c2ccc(O)c(F)c2)c1.O=C(O)/C=C/C(=O)O (stereo not shown) [R^5 = 3-fluoro-4-hydroxyphenyl, fumarate]", "rats", "change in vivo at 20 mg/kg", "26%"),
    ("CN1CCCC1c1cncc(-c2ccc(F)cc2)c1.O=C(O)/C=C/C(=O)O (stereo not shown) [A = CH2; R^7 = CH3; R^5 = 4-fluorophenyl, fumarate]", "rats", "change in vivo at 20 mg/kg", "173%"),
]
